biological target: Tyrosine-protein kinase JAK2 (Homo sapiens) (UniProt O60674); experiment: Inhibition of JAK2 (unknown origin) at 1 uM by KINOMEscanning assay relative to control; values are per cent of control
Sequence (O60674 whole entry): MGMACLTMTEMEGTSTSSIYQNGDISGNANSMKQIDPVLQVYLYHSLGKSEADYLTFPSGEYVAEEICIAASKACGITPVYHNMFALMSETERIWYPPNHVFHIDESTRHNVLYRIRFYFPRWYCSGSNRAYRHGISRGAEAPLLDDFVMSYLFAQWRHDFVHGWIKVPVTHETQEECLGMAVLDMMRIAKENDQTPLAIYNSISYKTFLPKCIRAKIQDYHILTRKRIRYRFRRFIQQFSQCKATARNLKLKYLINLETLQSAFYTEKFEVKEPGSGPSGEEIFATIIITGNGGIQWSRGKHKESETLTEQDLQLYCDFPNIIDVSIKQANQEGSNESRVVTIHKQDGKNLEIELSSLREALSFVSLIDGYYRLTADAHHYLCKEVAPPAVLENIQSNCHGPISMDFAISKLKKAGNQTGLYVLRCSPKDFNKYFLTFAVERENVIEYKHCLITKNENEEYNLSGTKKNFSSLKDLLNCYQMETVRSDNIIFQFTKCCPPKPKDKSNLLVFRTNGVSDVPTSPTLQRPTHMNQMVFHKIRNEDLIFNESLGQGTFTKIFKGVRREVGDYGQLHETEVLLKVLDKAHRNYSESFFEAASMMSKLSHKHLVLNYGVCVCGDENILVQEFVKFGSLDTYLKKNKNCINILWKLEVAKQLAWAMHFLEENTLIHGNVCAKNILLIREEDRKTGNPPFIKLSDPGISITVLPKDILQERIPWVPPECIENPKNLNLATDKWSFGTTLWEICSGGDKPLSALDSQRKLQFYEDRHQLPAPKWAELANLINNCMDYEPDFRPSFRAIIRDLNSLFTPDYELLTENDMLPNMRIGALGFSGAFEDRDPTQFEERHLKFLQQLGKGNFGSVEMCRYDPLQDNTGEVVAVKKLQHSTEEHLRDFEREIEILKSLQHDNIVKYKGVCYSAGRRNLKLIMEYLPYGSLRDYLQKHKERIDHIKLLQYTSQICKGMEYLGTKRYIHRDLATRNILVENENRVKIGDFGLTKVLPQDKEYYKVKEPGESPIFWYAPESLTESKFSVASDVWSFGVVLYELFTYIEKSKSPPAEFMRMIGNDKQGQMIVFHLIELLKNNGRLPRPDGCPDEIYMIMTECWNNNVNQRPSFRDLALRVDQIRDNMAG
Value Kind: residual activity (%)
// units = %; emit number, no label

If you can, please state the reported residual activity value of COc1cc(-c2c[nH]c3ncc(-c4cccc(N)c4)cc23)cc(OC)c1OC .
78

Given the molecule COc1ccc(-c2cnc3[nH]cc(-c4ccc(OC)c(OC)c4)c3c2)cc1OC , what is its reported residual activity?
49

// lookup residual activity for COc1ccc(-c2c[nH]c3ncc(-c4ccc(C(=O)N5CCOCC5)c(N)c4)cc23)cc1OC
3.2

Would you mind telling me what residual activity value was observed for COc1ccc(-c2cnc3[nH]cc(-c4ccc(OC)c(OC)c4)c3c2)cc1N ?
46

I would be grateful if you could share the reported residual activity for COc1ccc(-c2c[nH]c3ncc(-c4cc(OC)c(OC)c(OC)c4)cc23)cc1OC .
48

====

For each record, write down the corresponding residual activity.
target: Dual specificity mitogen-activated protein kinase kinase 1 (Homo sapiens) (UniProt Q02750); test: Inhibition of MEK1 (unknown origin) at 1 uM by KINOMEscanning assay relative to control; values are per cent of control
Sequence (Q02750 whole entry): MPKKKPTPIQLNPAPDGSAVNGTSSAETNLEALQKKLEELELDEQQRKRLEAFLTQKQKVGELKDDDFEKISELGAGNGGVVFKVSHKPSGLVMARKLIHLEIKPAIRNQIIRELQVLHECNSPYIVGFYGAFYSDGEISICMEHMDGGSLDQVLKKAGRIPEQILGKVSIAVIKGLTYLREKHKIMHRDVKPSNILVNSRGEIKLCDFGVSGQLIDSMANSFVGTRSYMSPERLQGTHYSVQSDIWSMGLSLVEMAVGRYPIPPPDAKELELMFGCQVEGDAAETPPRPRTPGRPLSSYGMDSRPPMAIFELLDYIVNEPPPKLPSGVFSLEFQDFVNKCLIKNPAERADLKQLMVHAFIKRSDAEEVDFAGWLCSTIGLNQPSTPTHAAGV
Response body: numeric value in %, unit text excluded.

Find residual activity (Dual specificity mitogen-activated protein kinase kinase 1 (Homo sapiens) (UniProt Q02750)) for the entry COc1ccc(-c2cnc3[nH]cc(-c4ccc(OC)c(OC)c4)c3c2)cc1N
76

Form field - read-out: residual activity; system: Dual specificity mitogen-activated protein kinase kinase 1 (Homo sapiens) (UniProt Q02750); submitted item: COc1ccc(-c2cnc3[nH]cc(-c4ccc(OC)c(OC)c4)c3c2)cc1OC
74

Missing value: residual activity, Dual specificity mitogen-activated protein kinase kinase 1 (Homo sapiens) (UniProt Q02750), entry COc1ccc(-c2c[nH]c3ncc(-c4ccc(C(=O)N5CCOCC5)c(N)c4)cc23)cc1OC . Fill in?
59

Any idea what residual activity came out for COc1cc(-c2c[nH]c3ncc(-c4cccc(N)c4)cc23)cc(OC)c1OC on Dual specificity mitogen-activated protein kinase kinase 1 (Homo sapiens) (UniProt Q02750)?
85

Could you share what residual activity was measured for COc1ccc(-c2c[nH]c3ncc(-c4cc(OC)c(OC)c(OC)c4)cc23)cc1OC , tested on Dual specificity mitogen-activated protein kinase kinase 1 (Homo sapiens) (UniProt Q02750)?
78

====

biological target: Mitogen-activated protein kinase 3 (Homo sapiens); assay: Inhibition of ERK1 (unknown origin) at 1 uM by KINOMEscanning assay relative to control; values are per cent of control
Exercise: state measured residual activity for each of the molecules provided.
Write down the value, and be sure its unit follows.

Reported residual activity, molecule COc1ccc(-c2cnc3[nH]cc(-c4ccc(OC)c(OC)c4)c3c2)cc1N : ____
88%

Find the recorded residual activity belonging to COc1ccc(-c2cnc3[nH]cc(-c4ccc(OC)c(OC)c4)c3c2)cc1OC and report it.
93%

I am curious: what residual activity value has been reported for COc1ccc(-c2c[nH]c3ncc(-c4cc(OC)c(OC)c(OC)c4)cc23)cc1OC ?
88%

So what's the measured residual activity for this one? COc1cc(-c2c[nH]c3ncc(-c4cccc(N)c4)cc23)cc(OC)c1OC
23%

Consider the molecule shown here: COc1ccc(-c2c[nH]c3ncc(-c4ccc(C(=O)N5CCOCC5)c(N)c4)cc23)cc1OC What is its recorded residual activity?
100%

====

Biological target: UniProt:O14965
Sequence (whole entry): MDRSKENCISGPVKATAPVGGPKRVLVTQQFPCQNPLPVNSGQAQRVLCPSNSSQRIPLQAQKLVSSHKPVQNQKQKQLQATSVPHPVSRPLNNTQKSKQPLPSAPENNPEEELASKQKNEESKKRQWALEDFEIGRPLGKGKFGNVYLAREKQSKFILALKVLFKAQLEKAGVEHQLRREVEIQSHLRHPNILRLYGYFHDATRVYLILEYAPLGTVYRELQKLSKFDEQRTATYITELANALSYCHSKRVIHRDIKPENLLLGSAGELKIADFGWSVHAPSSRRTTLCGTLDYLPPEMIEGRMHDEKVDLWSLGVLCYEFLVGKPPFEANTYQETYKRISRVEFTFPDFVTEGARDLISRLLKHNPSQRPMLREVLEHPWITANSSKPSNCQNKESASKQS
Assay: Inhibition of AURKA (unknown origin) at 1 uM by KINOMEscanning assay relative to control; values are per cent of control
Value Kind: residual activity
Your answer should be a number followed by the unit of measure.

For the record COc1ccc(-c2c[nH]c3ncc(-c4cc(OC)c(OC)c(OC)c4)cc23)cc1OC , what value of residual activity is listed for UniProt:O14965?
25%

Notebook: pull reported residual activity for UniProt:O14965, entry COc1ccc(-c2c[nH]c3ncc(-c4ccc(C(=O)N5CCOCC5)c(N)c4)cc23)cc1OC
0.85%

Find residual activity (UniProt:O14965) for the entry COc1ccc(-c2cnc3[nH]cc(-c4ccc(OC)c(OC)c4)c3c2)cc1N
17%

# get_value(readout= residual activity, system= UniProt:O14965) for COc1ccc(-c2cnc3[nH]cc(-c4ccc(OC)c(OC)c4)c3c2)cc1OC
13%

Value wanted: residual activity (UniProt:O14965) of entry COc1cc(-c2c[nH]c3ncc(-c4cccc(N)c4)cc23)cc(OC)c1OC
8.9%

====

tested on: Tyrosine-protein kinase ABL1 (Homo sapiens), P00519 [T315I]; test: Inhibition of ABL T315I mutant (unknown origin) at 1 uM by KINOMEscanning assay relative to control; values are per cent of control
Value Kind: residual activity (%)
# value in %; strip the unit string

Tell me the measured residual activity of COc1ccc(-c2cnc3[nH]cc(-c4ccc(OC)c(OC)c4)c3c2)cc1N , please.
54

Item COc1ccc(-c2c[nH]c3ncc(-c4cc(OC)c(OC)c(OC)c4)cc23)cc1OC has what recorded residual activity?
48

Which value of residual activity has been reported for COc1ccc(-c2c[nH]c3ncc(-c4ccc(C(=O)N5CCOCC5)c(N)c4)cc23)cc1OC in the records?
17

I have this compound here, COc1ccc(-c2cnc3[nH]cc(-c4ccc(OC)c(OC)c4)c3c2)cc1OC , and I need its recorded residual activity.
51

residual activity lookup needed for COc1cc(-c2c[nH]c3ncc(-c4cccc(N)c4)cc23)cc(OC)c1OC , thanks.
47

====

molecular target: BDNF/NT-3 growth factors receptor (Homo sapiens) (UniProt Q16620); test: Inhibition of TRKB (unknown origin) at 1 uM by KINOMEscanning assay relative to control; values are per cent of control
Sequence (Q16620 32-822 limits assumed): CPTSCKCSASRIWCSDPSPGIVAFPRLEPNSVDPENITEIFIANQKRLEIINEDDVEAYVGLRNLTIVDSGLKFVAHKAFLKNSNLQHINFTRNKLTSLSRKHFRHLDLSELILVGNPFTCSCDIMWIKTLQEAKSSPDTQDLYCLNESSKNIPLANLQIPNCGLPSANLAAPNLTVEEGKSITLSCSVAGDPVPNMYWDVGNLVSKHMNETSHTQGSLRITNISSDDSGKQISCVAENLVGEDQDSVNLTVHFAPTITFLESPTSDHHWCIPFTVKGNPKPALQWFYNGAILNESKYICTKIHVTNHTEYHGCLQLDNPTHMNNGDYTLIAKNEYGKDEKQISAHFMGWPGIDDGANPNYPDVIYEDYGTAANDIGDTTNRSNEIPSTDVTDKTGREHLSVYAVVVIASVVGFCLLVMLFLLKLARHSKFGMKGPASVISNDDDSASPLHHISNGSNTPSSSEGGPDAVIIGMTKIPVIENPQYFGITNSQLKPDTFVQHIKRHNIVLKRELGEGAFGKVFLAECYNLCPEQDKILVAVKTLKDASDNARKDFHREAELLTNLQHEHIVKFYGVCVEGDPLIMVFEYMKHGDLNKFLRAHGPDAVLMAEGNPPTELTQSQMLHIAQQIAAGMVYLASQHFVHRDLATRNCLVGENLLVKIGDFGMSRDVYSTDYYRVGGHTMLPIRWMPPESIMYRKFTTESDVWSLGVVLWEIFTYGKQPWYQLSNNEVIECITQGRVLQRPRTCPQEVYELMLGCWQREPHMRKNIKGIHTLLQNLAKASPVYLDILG
Value Kind: residual activity (%)
Give just the numeric value; % need not be written.

Tell me the measured residual activity of COc1ccc(-c2cnc3[nH]cc(-c4ccc(OC)c(OC)c4)c3c2)cc1N , please.
16

Which value of residual activity has been reported for COc1cc(-c2c[nH]c3ncc(-c4cccc(N)c4)cc23)cc(OC)c1OC in the records?
68

Given COc1ccc(-c2c[nH]c3ncc(-c4ccc(C(=O)N5CCOCC5)c(N)c4)cc23)cc1OC , state its recorded residual activity.
17

Field request: residual activity | item: COc1ccc(-c2c[nH]c3ncc(-c4cc(OC)c(OC)c(OC)c4)cc23)cc1OC
45

Give its residual activity value. Item: COc1ccc(-c2cnc3[nH]cc(-c4ccc(OC)c(OC)c4)c3c2)cc1OC
36

====

target: Vascular endothelial growth factor receptor 1 (Homo sapiens) (UniProt P17948); experiment: Inhibition of FLT1 (unknown origin) at 1 uM by KINOMEscanning assay relative to control; values are per cent of control
Sequence (P17948 whole entry): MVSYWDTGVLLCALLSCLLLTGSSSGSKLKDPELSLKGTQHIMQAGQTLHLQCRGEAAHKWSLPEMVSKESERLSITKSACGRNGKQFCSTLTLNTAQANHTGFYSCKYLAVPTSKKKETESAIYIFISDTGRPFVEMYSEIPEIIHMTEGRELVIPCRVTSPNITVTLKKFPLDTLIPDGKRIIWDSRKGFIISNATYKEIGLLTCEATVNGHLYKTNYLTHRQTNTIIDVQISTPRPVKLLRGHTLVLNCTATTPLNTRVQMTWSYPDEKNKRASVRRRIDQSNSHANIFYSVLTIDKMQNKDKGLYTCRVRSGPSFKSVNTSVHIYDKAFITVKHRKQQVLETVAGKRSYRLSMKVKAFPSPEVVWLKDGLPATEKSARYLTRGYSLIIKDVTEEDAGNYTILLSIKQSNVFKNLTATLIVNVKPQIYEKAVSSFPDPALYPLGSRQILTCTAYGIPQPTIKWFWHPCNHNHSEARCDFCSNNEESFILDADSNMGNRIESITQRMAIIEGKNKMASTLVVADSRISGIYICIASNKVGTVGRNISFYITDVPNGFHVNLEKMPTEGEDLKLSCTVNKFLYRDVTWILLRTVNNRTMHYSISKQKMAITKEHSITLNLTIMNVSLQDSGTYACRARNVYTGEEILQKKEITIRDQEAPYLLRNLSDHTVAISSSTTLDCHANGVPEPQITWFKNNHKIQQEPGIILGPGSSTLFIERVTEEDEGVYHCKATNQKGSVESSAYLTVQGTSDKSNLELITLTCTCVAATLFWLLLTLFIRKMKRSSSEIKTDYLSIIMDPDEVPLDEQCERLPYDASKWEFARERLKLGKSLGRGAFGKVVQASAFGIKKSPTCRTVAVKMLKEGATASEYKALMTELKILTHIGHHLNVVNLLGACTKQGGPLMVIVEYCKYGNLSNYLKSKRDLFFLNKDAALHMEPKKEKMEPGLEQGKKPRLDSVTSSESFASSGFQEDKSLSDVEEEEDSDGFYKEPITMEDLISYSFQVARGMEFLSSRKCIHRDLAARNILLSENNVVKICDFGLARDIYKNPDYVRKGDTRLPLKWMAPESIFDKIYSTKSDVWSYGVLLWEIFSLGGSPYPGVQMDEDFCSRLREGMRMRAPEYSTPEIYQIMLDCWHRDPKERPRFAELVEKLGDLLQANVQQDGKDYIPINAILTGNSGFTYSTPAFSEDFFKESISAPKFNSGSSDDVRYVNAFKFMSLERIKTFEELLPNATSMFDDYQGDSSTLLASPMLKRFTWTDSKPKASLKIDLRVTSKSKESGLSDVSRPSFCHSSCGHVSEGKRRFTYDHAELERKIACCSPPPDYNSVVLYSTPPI
Lab note: anything with residual activity at or over 60% counts as true; the rest go in false.

Is reported residual activity greater than or equal to 60% here: COc1ccc(-c2c[nH]c3ncc(-c4cc(OC)c(OC)c(OC)c4)cc23)cc1OC
true

Has COc1cc(-c2c[nH]c3ncc(-c4cccc(N)c4)cc23)cc(OC)c1OC a recorded residual activity greater than or equal to 60%?
false

Quick check, residual activity >= 60%? COc1ccc(-c2cnc3[nH]cc(-c4ccc(OC)c(OC)c4)c3c2)cc1N
false

Is it the case that COc1ccc(-c2cnc3[nH]cc(-c4ccc(OC)c(OC)c4)c3c2)cc1OC has residual activity reaching or exceeding 60%?
true

Is the recorded value of residual activity equal to or greater than 60% for this compound? COc1ccc(-c2c[nH]c3ncc(-c4ccc(C(=O)N5CCOCC5)c(N)c4)cc23)cc1OC
false

====

biological target: Inhibitor of nuclear factor kappa-B kinase subunit alpha (Homo sapiens); test: Inhibition of IKKalpha (unknown origin) at 1 uM by KINOMEscanning assay relative to control; values are per cent of control
Value Kind: residual activity (%)
Response body: numeric value in %, unit text excluded.

Short answer please: residual activity, Inhibitor of nuclear factor kappa-B kinase subunit alpha (Homo sapiens), entry COc1ccc(-c2c[nH]c3ncc(-c4ccc(C(=O)N5CCOCC5)c(N)c4)cc23)cc1OC
2.2

Query residual activity on Inhibitor of nuclear factor kappa-B kinase subunit alpha (Homo sapiens) for COc1ccc(-c2cnc3[nH]cc(-c4ccc(OC)c(OC)c4)c3c2)cc1OC
10

Fill in the recorded residual activity for this compound, with Inhibitor of nuclear factor kappa-B kinase subunit alpha (Homo sapiens) as test system: COc1ccc(-c2c[nH]c3ncc(-c4cc(OC)c(OC)c(OC)c4)cc23)cc1OC
70
